# target_of_assay: T1, recombinant Ovr110-hFc encoded by Ovr110 Construct 2 (human)
# T1 construct: Captured on plates by goat anti-human IgG Fc; also called Ovr110-hFc (with TM)
# T1 chain: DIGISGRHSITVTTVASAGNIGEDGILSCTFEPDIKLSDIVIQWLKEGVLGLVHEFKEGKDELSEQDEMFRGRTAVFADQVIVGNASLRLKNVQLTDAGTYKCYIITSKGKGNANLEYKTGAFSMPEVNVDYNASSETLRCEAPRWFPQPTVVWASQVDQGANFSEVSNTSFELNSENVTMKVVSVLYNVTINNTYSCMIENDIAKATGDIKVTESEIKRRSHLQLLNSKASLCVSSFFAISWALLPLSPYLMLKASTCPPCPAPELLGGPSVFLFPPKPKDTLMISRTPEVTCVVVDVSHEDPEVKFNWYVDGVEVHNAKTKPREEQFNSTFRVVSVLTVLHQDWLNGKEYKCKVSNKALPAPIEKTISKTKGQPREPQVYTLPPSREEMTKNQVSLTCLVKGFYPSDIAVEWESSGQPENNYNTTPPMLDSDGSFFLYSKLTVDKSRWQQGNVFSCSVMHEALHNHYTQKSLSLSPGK
# assay_method_text: competition ELISA; row = unlabeled blocking MAb; competitor = biotinylated detecting MAb C6.3
readout_kind: signal/noise ratio

Entry under test: Ovr110.Q11 (antibody, V domains shown, Mouse hybridoma MAb; also called Q11.12.3; Ovr110.Q11.12.3) VH: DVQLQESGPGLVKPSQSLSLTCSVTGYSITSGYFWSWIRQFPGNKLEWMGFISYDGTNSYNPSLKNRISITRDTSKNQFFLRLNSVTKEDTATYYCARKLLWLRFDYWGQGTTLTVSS VL: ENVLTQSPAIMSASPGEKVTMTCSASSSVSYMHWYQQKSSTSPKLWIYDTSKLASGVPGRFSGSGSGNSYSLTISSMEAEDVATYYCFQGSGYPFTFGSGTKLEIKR . Its signal/noise ratio was 1.2
